B1: ZNF193 (parent)
chain: QCIECGKSFNRHCNLIRHQKIHTV

Variants of: B1
protocol_description: protein stability index of a GFP-peptide fusion (GPS, HEK-293T) (PSI 1-6); higher = more stable;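 note: lentivirally expressed fusions sorted by FACS into six bins by GFP to DsRed ratio, PSI derived from sequencing read proportions per bin multiplied by bin number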
assay_context: c terminus: a fixed tail appended
test_readout: protein stability index

Use the examples below as a reference point.
Could you share which protein stability index value was measured for `K7A` ?
3.74

Could you share which protein stability index value was measured for `F9H` ?
2.55

Could you share which protein stability index value was measured for `K20T` ?
2.63

Report protein stability index for every entry below.
1. I3W
2. H18C
3. N10Y

1. 3.18
2. 2.55
3. 2.98

The measured values listed here are drawn from the supplement of paper PMC10567573.
